- TEST TARGET: glycosylated human PAI-1 (active form) (human, UniProt P05121 24-402, glycosylated (sites not given))
- Sequence (P05121 24-402 limits assumed, form in doubt): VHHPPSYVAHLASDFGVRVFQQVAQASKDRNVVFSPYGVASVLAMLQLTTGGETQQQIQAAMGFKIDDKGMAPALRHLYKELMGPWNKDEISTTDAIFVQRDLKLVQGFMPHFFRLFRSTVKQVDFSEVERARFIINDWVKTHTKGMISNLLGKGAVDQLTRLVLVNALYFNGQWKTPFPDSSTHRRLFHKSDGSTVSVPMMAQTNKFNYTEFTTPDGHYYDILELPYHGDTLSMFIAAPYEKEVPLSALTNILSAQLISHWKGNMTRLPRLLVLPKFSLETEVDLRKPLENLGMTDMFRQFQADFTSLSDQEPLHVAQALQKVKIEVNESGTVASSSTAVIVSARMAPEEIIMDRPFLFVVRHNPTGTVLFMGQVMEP
- PROTOCOL: cell-based or functional assay
PROPERTY: human plasma clot lysis IC50 (nM)
Answers are plain numbers, in nM.

Known results for binders:
A44-hv11 (antibody, V domains shown, constant regions only as pictures; also called A44V11; A44v11) VH: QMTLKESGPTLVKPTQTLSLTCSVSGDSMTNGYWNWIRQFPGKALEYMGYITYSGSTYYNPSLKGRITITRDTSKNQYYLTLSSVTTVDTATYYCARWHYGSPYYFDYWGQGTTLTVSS VL: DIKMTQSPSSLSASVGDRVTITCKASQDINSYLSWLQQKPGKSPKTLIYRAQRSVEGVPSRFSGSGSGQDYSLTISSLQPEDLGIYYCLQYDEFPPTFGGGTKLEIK    1.38
APG (antibody, V domains shown, mouse antibody; also called mAPG; mouse APG) VH: QVKLQESGPELVKPGASVKISCKASGYSFTDYNMNWVKQSKGKSLEWIGIIHPNSGTTTYNQKFKGKATLTVDQSSSTAYLQLNSLTSEDSAVYYCARSKLRFFDYWGQGTTVTVSS VL: DIKLTQSPSSMYASLGERVTITCKASQDIYSYLSWFQQKPGKSPKTLIYRANRLIDGVPSRFSGSGSGQDYSLTISSLEYEHMGIYYCLQYDEFPFTFGSGTKLEIK    2.34
APGv4 (antibody, V domains shown, humanized; also called APG variant 4) VH: QVQLVQSGAEVKKPGASVKVSCKASGYSFTDYNMNWVRQAPGQGLEWIGIIHPNSGTTTYNQKFKGRATLTVDQSTSTAYMELSSLRSEDTAVYYCARSKLRFFDYWGQGTLVTVSS VL: DIQLTQSPSSLSASVGDRVTITCKASQDIYSYLSWFQQKPGKAPKTLIYRANRLIDGVPSRFSGSGSGQDYTFTISSLQPEDIATYYCLQYDEFPFTFGQGTKLEIK    2.82

// query Item under review: APGv2 (antibody, V domains shown, humanized; also called APG variant 2) VH: QVQLVQSGSELKKPGASVKVSCKASGYSFTDYNMNWVRQAPGQGLEWIGIIHPNSGTTTYNQKFKGRAVLSVDQSVSTAYLQISSLKAEDTAVYYCARSKLRFFDYWGQGTLVTVSS VL: DIQLTQSPSSLSASVGDRVTITCKASQDIYSYLSWFQQKPGKAPKTLIYRANRLIDGVPSRFSGSGSGQDYTFTISSLQPEDIATYYCLQYDEFPFTFGQGTKLEIK . Reported human plasma clot lysis IC50?
// result 2.08
